# System: Toxoplasma gondii RH (in HFF)
# protocol: parasite growth relative to the screen mean (all compounds = 100%); higher = less inhibition of parasite growth
# experimental conditions: 5 µM; 72 h; oxygen 21 %
Counter-ions that a name gives are not always drawn.

molecule	tested target	parasite growth / %
CCCCC1CCC(c2nc(-c3ccncc3)no2)CC1 (stereo not given)	Toxoplasma gondii RH (in HFF)	81.9
CO[C@@H]1[C@H](O)[C@@H](CO)O[C@H]1n1cnc2c(NC3CCCCC3)ncnc21	Toxoplasma gondii RH (in HFF)	103
NC1CCN(c2cccc(Cl)n2)CC1	Toxoplasma gondii RH (in HFF)	141
C1CCC(N=C(NC23CC4CC(CC(C4)C2)C3)N2CCOCC2)CC1	Toxoplasma gondii RH (in HFF)	100
N[C@H](C(=O)O)[C@H](OCc1ccccc1)C(=O)O (racemic)	Toxoplasma gondii RH (in HFF)	80.3
COc1cc([C@@H]2c3cc4c(cc3[C@@H](O[C@@H]3O[C@@H]5CO[C@@H](C)O[C@H]5[C@H](O)[C@H]3O)[C@H]3COC(=O)[C@H]23)OCO4)cc(OC)c1O [Etoposide]	Toxoplasma gondii RH (in HFF)	77.2
O=C(Nc1ccccc1)C12CC1C(=NO)c1ccccc1O2 (stereo not given)	Toxoplasma gondii RH (in HFF)	77.3
CC1(C)CC(=O)C(C2C3=C(CC(C)(C)CC3=O)Oc3ccccc32)C(=O)C1 (stereo not given)	Toxoplasma gondii RH (in HFF)	127
O=C1CCC(N2C(=O)c3ccccc3C2=O)C(=O)N1 (stereo not given) [Thalidomide]	Toxoplasma gondii RH (in HFF)	151
CCC(CC)(CC(=O)Nc1cccc(/C=C/c2nc(C3CCC3)cs2)c1)C(=O)O	Toxoplasma gondii RH (in HFF)	115
CC(C)Oc1cccc(-n2c(CCc3c[nH]c4ccc(Br)cc34)nc3ccccc3c2=O)c1	Toxoplasma gondii RH (in HFF)	55.8
CN(N=O)C(=O)N[C@@H](C=O)[C@@H](O)[C@H](O)[C@H](O)CO	Toxoplasma gondii RH (in HFF)	137
NS(=O)(=O)c1cccc2c1c([N+](=O)[O-])cc1nc(O)c(O)nc12 [NBQX disodium salt]	Toxoplasma gondii RH (in HFF)	112
Cc1c(NC(=O)N2CCOCC2)ccc2c1c1ccccc1n2C(C)C	Toxoplasma gondii RH (in HFF)	144
COC(=O)C1=C(C)NC(C)=C(C(=O)OCCSc2ccccc2)C1C (stereo not given)	Toxoplasma gondii RH (in HFF)	146
O=C(O)c1cc(=O)c2ccccc2[nH]1	Toxoplasma gondii RH (in HFF)	123
O=C1c2ccccc2C(Cc2ccnc(F)c2)(Cc2ccnc(F)c2)c2ccccc21	Toxoplasma gondii RH (in HFF)	102
CS(=O)(=O)Nc1c(O)ccc2c1CCCC2C1=NCCN1 (stereo not given)	Toxoplasma gondii RH (in HFF)	101
CCN(CC)CCOCCOC(=O)C1(c2ccccc2)CCCC1 [Carbetapentane citrate]	Toxoplasma gondii RH (in HFF)	137
Clc1ccc(CCCOCCCN2CCCCC2)cc1	Toxoplasma gondii RH (in HFF)	45.7
COc1cccc2c1C(=O)c1c(O)c3c(c(O)c1C2=O)C[C@@](O)(C(=O)CO)C[C@@H]3O[C@H]1C[C@H](N)[C@H](O)[C@H](C)O1 [Doxorubicin hydrochloride]	Toxoplasma gondii RH (in HFF)	18.4
Nc1c2c(nc3ccccc13)CCCC2 [Tacrine hydrochloride]	Toxoplasma gondii RH (in HFF)	130
Cn1cnnc1Sc1c([N+](=O)[O-])ncn1C	Toxoplasma gondii RH (in HFF)	131
CN(C(=O)c1c(O)c2ccccc2n(C)c1=O)c1ccccc1 [Linomide]	Toxoplasma gondii RH (in HFF)	135
CCOCC(O)COc1ccc(NC(=O)CC[S+](C)C)cc1 (stereo not given) [Suplatast tosylate]	Toxoplasma gondii RH (in HFF)	75
C=CCN1CCc2cc(O)c(O)cc2C(c2ccccc2)C1 (stereo not given)	Toxoplasma gondii RH (in HFF)	135
CN(CCc1ccc(Cl)c(Cl)c1)CC(O)COc1ccc(NS(C)(=O)=O)cc1 (stereo not given)	Toxoplasma gondii RH (in HFF)	58.1
CC(=O)NCC(=O)N[C@H](CCC(=O)O)C(=O)O	Toxoplasma gondii RH (in HFF)	132
Cc1noc(NS(=O)(=O)c2ccc(N)cc2)c1C	Toxoplasma gondii RH (in HFF)	108
CCN(CC)CCCC(C)Nc1nc(C)cc(Nc2ccc3nc(C)cc(N)c3c2)n1 (stereo not given)	Toxoplasma gondii RH (in HFF)	127
